# Target System: KOP receptors (Homo sapiens, UniProt P41145)
# Sequence (P41145 whole entry): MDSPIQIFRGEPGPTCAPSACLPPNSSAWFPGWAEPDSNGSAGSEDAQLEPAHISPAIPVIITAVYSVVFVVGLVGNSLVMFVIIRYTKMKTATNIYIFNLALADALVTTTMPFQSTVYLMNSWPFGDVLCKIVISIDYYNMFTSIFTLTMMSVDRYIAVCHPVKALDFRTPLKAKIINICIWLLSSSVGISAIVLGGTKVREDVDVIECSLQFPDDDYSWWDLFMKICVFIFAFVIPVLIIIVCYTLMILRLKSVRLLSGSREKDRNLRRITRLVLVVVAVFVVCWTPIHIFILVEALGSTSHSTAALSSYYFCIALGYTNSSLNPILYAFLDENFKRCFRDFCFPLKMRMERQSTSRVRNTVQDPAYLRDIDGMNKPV
# Protocol Summary: biochemical
Catalogue of compounds with associated EC50
Assay Metric: EC50 (nM)

[[record]]
compound = "COC(=O)C1=C(C(=O)OC)C2OC1C=C2[C@@H]1C[C@]2(C)[C@H]3C(=O)[C@@H](OC(C)=O)C[C@@H](C(=O)OC)[C@]3(C)CC[C@H]2C(=O)O1 (some centres unmarked)"
data_value = 980

[[record]]
compound = "CCOC(=O)C1=C(C(=O)OCC)C2OC1C=C2[C@@H]1C[C@]2(C)[C@H]3C(=O)[C@@H](OC(C)=O)C[C@@H](C(=O)OC)[C@]3(C)CC[C@H]2C(=O)O1 (some centres unmarked)"
data_value = 2150


---

# Target System: KOP receptors (Homo sapiens, UniProt P41145)
Assay Metric: Ki (nM)

[[record]]
molecule = "COC(=O)[C@@H]1C[C@H](OC(C)=O)C(=O)[C@H]2[C@@]1(C)CC[C@H]1C(=O)O[C@H](c3ccc4ccccc4c3)C[C@]21C [Compound 15]"
target_system = "KOP receptors (Homo sapiens, UniProt P41145)"
readout_unit = "nM"
data_value = 286

[[record]]
molecule = "COC(=O)c1ccc([C@@H]2C[C@]3(C)[C@H]4C(=O)[C@@H](OC(C)=O)C[C@@H](C(=O)OC)[C@]4(C)CC[C@H]3C(=O)O2)cc1C(=O)OC [Compound 14]"
target_system = "KOP receptors (Homo sapiens, UniProt P41145)"
readout_unit = "nM"
data_value = 228


All figures here come from paper PMC3081938.
